Source listed as patent US10407381B2.

- system.tested: 5-HT2A (Homo sapiens, UniProt P28223)
- Sequence (P28223 whole entry): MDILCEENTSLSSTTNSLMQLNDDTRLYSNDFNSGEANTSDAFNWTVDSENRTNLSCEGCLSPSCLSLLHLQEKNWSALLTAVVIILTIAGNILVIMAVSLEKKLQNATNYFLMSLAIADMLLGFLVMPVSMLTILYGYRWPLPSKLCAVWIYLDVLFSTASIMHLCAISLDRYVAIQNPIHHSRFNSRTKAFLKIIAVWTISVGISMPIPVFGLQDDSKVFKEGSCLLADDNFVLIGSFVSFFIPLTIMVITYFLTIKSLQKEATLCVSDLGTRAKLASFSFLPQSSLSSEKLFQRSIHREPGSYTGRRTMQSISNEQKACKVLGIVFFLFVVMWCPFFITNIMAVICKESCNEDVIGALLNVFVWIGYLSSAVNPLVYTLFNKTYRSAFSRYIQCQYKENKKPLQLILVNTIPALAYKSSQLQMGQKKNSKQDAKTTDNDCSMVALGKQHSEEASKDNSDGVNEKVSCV
- test.method.notes: Calcium flux (FLIPR) assay, human 5-HT2A stably expressed in HEK-293 (Flp-In-293) cells
- condition.context: human 5-HT2A in HEK-293 cells, FLIPR; normalized to 5-HT
endpoint: Emax, % 5-HT 5-HT2A

{"molecule": "C=CCOc1ccc(Cl)c(Cl)c1C1CC1CN (single isomer, unassigned; (-)) [(−)-Example 39]", "system.tested": "5-HT2A (Homo sapiens, UniProt P28223)", "measured": "(32%) % 5-HT"}
{"molecule": "CCOc1ccc(Cl)c(Cl)c1C1CC1CN (single isomer, unassigned; (+)) [(+)-Example 37]", "system.tested": "5-HT2A (Homo sapiens, UniProt P28223)", "measured": "(32%) % 5-HT"}
